Tested on: HaCat
Assay: Cytotoxic Profiling of Annotated Libraries Using Quantitative High-Throughput Screening (AID 1296008); further: on the % scale 0 is the no-effect control and ±100 the full control effect; nearly all actives have a fitted effect of over 60% in size
Conditions: Five cell lines viability, CellTiter-Glo ATP luminescence, 48-72 h; hits give low values
Protocol: Cell-based phenotypic screening is a commonly used approach to discover biological pathways, novel drug targets, chemical probes and high-quality hit-to-lead molecules. […] A pintool (Kalypsys) was used to transfer 23 nL of compound solution to the 1536-well assay plates. […] Plates were left at room temperature for 10 min before imaging the ATP-coupled luminescence using a ViewLux microplate imager (PerkinElmer, Waltham, MA).
Records with an inconclusive call do not appear. Where a SMILES comes first, the peptide text is derived from it. [ ]: non-standard residue; d: D form. ξ: configuration not given here. ξPhe(βξ-Me) = CC(c1ccccc1)C(N)C(=O)O; GABA = NCCCC(=O)O
endpoint: max response (%)
Write the number in % without appending the unit.

Query the reported max response for HaCat; item: CC1=CCC(C(C)(C)O[C@@H]2O[C@H](CO[C@@H]3O[C@@H](C)[C@H](O)[C@@H](O)[C@H]3O)[C@@H](O)[C@H](O)[C@H]2O)CC1 (stereo partly specified)
1.99

Request - read-out max response | tested on HaCat | compound O=C(O)c1cc2cccc([N+](=O)[O-])c2[nH]1
-11.1

HaCat / max response / CC(=O)O[C@@H]1[C@@H](CO)O[C@@](CO)(O[C@H]2O[C@H](COC(=O)/C=C/c3ccccc3)[C@@H](O)[C@H](O)[C@H]2O)[C@H]1O : value?
-9.37

Param readout = max response; param system = HaCat; param query = CC1(C)CC[C@]2(C(=O)O[C@@H]3O[C@H](CO)[C@@H](O)[C@H](O)[C@H]3O)CC[C@]3(C)C(=CCC4[C@@]5(C)C[C@@H](O)[C@H](O)[C@@](C)(CO)C5CC[C@]43C)C2[C@@H]1O (stereo partly specified) ; response: value
-9.78

Hi! What's the reported max response for C=C(C(=O)O)C1CC(O)C2(C)CCCC(=C)C2C1 (stereo unspecified) on HaCat?
-8.7

Item CC1CC[C@]2(C(=O)O)CC[C@]3(C(=O)O)C(=CCC4[C@@]5(C)CC[C@H](O[C@@H]6O[C@H](CO)[C@@H](O)[C@H](O)[C@H]6O)C(C)(C)C5CC[C@]43C)C2C1C (stereo partly specified) with HaCat - max response?
4.65

Hello, I am looking for reported max response with HaCat for CCOc1cc(CC(=O)NC(CC(C)C)c2ccccc2N2CCCCC2)ccc1C(=O)O (stereo unspecified) . Could you help?
3.59

Query for HaCat: what max response does the record show for Fc1ccc2nc(CCC#Cc3ccccn3)cn2c1 ?
-2.5

Checklist item: max response tested on HaCat, entry CON(C)C(=O)[C@H](O)[C@H](Cc1ccccc1)NC(=O)c1cc2cc(Cl)ccc2[nH]1 , value?
-24.4

For the record CC1=CC(=O)C(=C(C)C)CC2C1CCC2(C)O (stereo unspecified) , what value of max response is listed for HaCat?
-1.27

Query for HaCat: what max response does the record show for CCOCc1nc2c(N)nc3ccccc3c2n1CC(C)(C)O ?
3.85

Form field - read-out: max response; system: HaCat; submitted item: CC1=C(CCC(C)CC(=O)O)[C@@]2(C)CCCC(C)(C)C2CC1=O (stereo partly specified)
-7.07

Short answer please: max response, HaCat, entry CCOc1cc(C)c(Cl)cc1S(=O)(=O)n1cnc2ccccc21
-29.2

Item: COC(=O)c1cc(OC)cc(OC)c1C(=O)c1c(OC)cc2c(c1O)C1CCCC(C)(O2)O1 (stereo unspecified) Test system: HaCat Read-out: max response Value: ?
3.65

Return max response measured with HaCat given this compound: CC(=O)OC1CC2C3(C)CCC(OC(=O)CC(=O)O)C(C)(C)C3CCC2(C)C2(C)CCC(C3(C)CCC(=O)O3)C12 (stereo unspecified)
3.4

Value wanted: max response (HaCat) of entry CC1NC(=O)CCCNC(=O)C(Cc2c[nH]c3ccccc23)NC(=O)C(C)NC(=O)C(C(C)C)NC(=O)C(C(C)c2ccccc2)NC(=O)C(C(C)C)NC1=O (stereo not drawn) (cyclo([GABA]AV[ξPhe(βξ-Me)]VAW); configuration not given here)
-0.27
